# Assayed Target: Mucosa-associated lymphoid tissue lymphoma translocation protein 1 (Homo sapiens, UniProt Q9UDY8)
# Sequence (Q9UDY8 whole entry, the tested form may be a part): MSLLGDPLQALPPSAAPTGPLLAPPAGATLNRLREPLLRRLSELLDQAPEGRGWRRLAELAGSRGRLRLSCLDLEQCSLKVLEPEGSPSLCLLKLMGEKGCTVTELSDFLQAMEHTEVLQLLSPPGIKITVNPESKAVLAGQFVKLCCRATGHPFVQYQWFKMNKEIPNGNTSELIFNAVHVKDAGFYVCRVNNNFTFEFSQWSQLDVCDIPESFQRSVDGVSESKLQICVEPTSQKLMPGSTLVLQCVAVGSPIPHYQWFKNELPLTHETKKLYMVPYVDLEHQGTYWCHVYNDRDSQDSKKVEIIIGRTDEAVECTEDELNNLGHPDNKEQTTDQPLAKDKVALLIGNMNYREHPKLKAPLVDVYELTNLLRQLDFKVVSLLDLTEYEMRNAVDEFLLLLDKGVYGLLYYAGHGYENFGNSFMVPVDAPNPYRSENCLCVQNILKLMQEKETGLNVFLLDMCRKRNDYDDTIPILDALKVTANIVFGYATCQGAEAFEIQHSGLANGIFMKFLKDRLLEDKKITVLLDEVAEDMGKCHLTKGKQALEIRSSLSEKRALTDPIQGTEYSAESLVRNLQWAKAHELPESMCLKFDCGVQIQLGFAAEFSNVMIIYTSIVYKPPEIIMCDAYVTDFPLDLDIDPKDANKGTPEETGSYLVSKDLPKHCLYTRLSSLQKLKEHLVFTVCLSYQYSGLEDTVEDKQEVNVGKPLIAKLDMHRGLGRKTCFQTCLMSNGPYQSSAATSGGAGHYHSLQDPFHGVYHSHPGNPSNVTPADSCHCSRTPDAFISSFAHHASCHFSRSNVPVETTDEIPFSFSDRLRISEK
# Protocol Details: Inhibition of His-tagged human MALT1 (catalytic domain-339-719 aa) by fluorescence based assay using 25 uM Ac-LRSR-AMC as substrate
Can you tell me IC50 for the items I'm about to list?
Numbers only, in µM.

smiles_data=CC1(C)CCC2=C(O1)c1cc(O)ccc1C(=O)C2=O unit_descriptor=µM measured_value=9.3
smiles_data=CC1(C)CCC2=C(O1)c1ccc([N+](=O)[O-])cc1C(=O)C2=O unit_descriptor=µM measured_value=0.4
smiles_data=COc1cc2c(cc1OC)C1=C(CCC(C)(C)O1)C(=O)C2=O unit_descriptor=µM measured_value=2.3
smiles_data=COc1ccc2c(c1)C(=O)C(=O)C1=C2OC(C)(C)CC1 unit_descriptor=µM measured_value=0.6
smiles_data=COc1ccc2c(c1)C1=C(CCC(C)(C)O1)C(=O)C2=O unit_descriptor=µM measured_value=9.2

Could I get IC50 for every one of these entries?
1. CC1(C)CCC2=C(O1)c1ccc(F)cc1C(=O)C2=O
2. COCCOc1nc(-c2ccc(Cl)c(Cl)c2)n(-c2ccc(NC(=O)CCl)cc2)n1
3. CC1(C)CCC2=C(O1)c1ccc(C#N)cc1C(=O)C2=O
4. CC1(C)CCC2=C(O1)c1ccccc1C(=O)C2=O

[1.5, 3.3, 1.6, 1.2]

Supply recorded IC50 for CC1(C)CCC2=C(O1)c1ccc(Br)cc1C(=O)C2=O here.
9.2
